These entries and their values trace back to PubChem BioAssay AID504832.

# protocol-text: Primary qHTS for delayed death inhibitors of the malarial parasite plastid, 48 hour incubation
# assay-conditions: P. falciparum luciferase growth in erythrocytes; series mostly up to 28.7 µM
Screen size: about 310,000 compounds; about 18,000 (5.8%) were called active. Another 22% or so got no clear call; they are omitted. Calls come from the whole dose curve; as a rule, active = well fitted inhibition curve with a large enough effect; inconclusive = small, poorly fitted or top-dose-only effect, or another doubt; inactive = no such curve, though single readings can be large or run the other way. What follows is part of a selection rich in actives, with near analogues and random picks from the rest.
Please answer using one outcome listed in label 1 for active, label 0 for inactive

COc1ccc(-c2n[nH]c(C)c2-c2ccccc2OC)c(O)c1: label 1

Data request: Returns: the outcome recorded for Cc1noc(C)c1COC(=O)COc1ccc(-c2ccccc2)cc1 in this assay.
Data returned: label 0

Data request: Returns: the outcome recorded for O=C(Cc1c(Cl)cccc1Cl)NC1CC1 in this assay.
Data returned: label 0

Data request: Returns: the outcome recorded for Cc1[nH]c2ccccc2c1C(=O)CN1CCCC(C)C1 (stereo not drawn) in this assay.
Data returned: label 0

Data request: Returns: the outcome recorded for COc1ccc(-c2c(-c3ccc(OC)cc3O)nc(C)nc2C(F)(F)F)cc1 in this assay.
Data returned: label 1

Data request: Returns: the outcome recorded for COCc1cc(C)n(CC(=O)NCC2CCCO2)c(=O)c1C#N (stereo not drawn) in this assay.
Data returned: label 0

Data request: Returns: the outcome recorded for CN1CCN(c2nc(Nc3ccc(O)cc3)nc3ccccc23)CC1 in this assay.
Data returned: label 1

Data request: Returns: the outcome recorded for O=C(Cc1ccccc1F)NC1CCSc2ccccc21 (stereo not drawn) in this assay.
Data returned: label 0

Data request: Returns: the outcome recorded for CC(=O)c1c(C)[nH]c(C(=O)OCC(=O)Nc2c(C)cccc2C)c1C in this assay.
Data returned: label 0
